Value source: patent US20210188843A1

assay: Microsomal stability (rat); type: in vitro ADME; details: rat microsomes, Table 2, read-out: Microsomal Stability (rat) T1/2
endpoint: half-life

compound-structure-string | result
N=c1ccc2cnc3ccc(-c4ccc(Cl)cc4)cc3c2n1-c1cccc(C(F)(F)F)c1 | > 30 min
C/N=c1\ccc2cnc3ccc(-c4ccc(Cl)cc4)cc3c2n1-c1ccc(C(=O)NC2CC2)cc1 | 17.4 min
N=c1ccc2cnc3ccc(-c4ccc(Cl)cc4)cc3c2n1-c1ccc(C(=O)NC2CC2)cc1 | > 30 min
CN(C)CCN1CCN(C(=O)c2ccc(-n3/c(=N\C#N)ccc4cnc5ccc(-c6ccc(Cl)cc6)cc5c43)cc2)CC1 | > 30 min
N=c1ccc2cnc3ccc(-c4ccc(N)nc4)cc3c2n1-c1cccc(C(F)(F)F)c1 | > 30 min
N#Cc1cccc(-n2c(=N)ccc3cnc4ccc(-c5ccc(Cl)cc5)cc4c32)c1 | > 30 min
Cc1ccc([S+](=O)([O-])/N=c2\ccc3cnc4ccc(-c5ccc(Cl)cc5)cc4c3n2-c2ccc(C(=O)NC3CC3)cc2)cc1 | 11.5 min
CCC(=O)/N=c1/ccc2cnc3ccc(-c4ccc(Cl)cc4)cc3c2n1-c1ccc(C(=O)NC2CC2)cc1 | 4.8 min

[in] Tell me the measured half-life of N=c1ccc2cnc3ccc(-c4ccc(Cl)cc4)cc3c2n1-c1cccc(Cl)c1 , please.
[out] > 30 min
